Source listed as patent US7026487B2.

Target: RARγ (Homo sapiens, UniProt P13631)
Sequence (P13631 whole entry): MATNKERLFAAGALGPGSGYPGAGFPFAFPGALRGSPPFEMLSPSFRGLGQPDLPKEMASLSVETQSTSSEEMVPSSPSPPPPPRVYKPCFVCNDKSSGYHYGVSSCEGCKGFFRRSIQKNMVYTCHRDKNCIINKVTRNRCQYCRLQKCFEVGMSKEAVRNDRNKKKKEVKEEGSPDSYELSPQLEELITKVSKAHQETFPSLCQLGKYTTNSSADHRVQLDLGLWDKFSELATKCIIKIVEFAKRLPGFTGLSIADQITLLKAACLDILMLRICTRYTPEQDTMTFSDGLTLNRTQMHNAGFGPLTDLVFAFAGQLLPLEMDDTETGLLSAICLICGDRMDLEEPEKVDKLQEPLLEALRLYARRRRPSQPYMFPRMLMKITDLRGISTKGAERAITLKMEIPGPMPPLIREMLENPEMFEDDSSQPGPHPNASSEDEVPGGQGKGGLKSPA
Sequence (P19793 whole entry, further chain): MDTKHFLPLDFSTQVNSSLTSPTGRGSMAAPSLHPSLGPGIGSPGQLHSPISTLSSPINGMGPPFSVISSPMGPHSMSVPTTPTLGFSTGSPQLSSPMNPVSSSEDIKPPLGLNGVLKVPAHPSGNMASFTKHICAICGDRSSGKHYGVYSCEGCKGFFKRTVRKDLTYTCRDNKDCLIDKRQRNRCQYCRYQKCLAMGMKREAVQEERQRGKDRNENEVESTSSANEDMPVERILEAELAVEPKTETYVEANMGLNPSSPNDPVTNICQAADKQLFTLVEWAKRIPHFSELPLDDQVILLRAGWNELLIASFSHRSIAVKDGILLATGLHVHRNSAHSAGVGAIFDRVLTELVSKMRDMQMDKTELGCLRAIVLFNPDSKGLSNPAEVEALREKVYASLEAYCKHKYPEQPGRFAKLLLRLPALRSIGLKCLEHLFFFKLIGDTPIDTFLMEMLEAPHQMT
Assay: chimeric receptor transactivation assay, RARγ
Format: cell-based
Conditions: NA = Not Active, read-out: RAR Trans. EC50 (nM) γ
From the text: The specification of U.S. Pat. No. 5,455,265 is hereby expressly incorporated by reference.
measurement.name: EC50

| given.smiles | system.tested | measurement |
| --- | --- | --- |
| C=CCN(c1ccc(C(=O)O)cc1)c1ccc2c(c1)C(C(C)(C)C)=CCC2(C)C | RARγ (Homo sapiens, UniProt P13631) | > 1000 nM |

---

target: RXRγ (UniProt P28705); test: ligand binding assay, RXRγ; settings: read-out: RXR Bind Ki (nM) γ
This listing pairs molecules with measured Ki.
measurement.name: Ki

| given.smiles | measurement.name | measurement |
| --- | --- | --- |
| CCN(c1ccc(C(=O)O)cc1)c1cc2c(cc1C)C(C)=CCC2(C)C | Ki | > 1000 nM |
| CC1=CCC(C)(C)c2cc(N(C)c3ccc(C(=O)O)cc3)c(C)cc21 | Ki | > 1000 nM |
| CCCN(c1ccc(C(=O)O)cc1)c1cc2c(cc1C)C(C)=CCC2(C)C | Ki | > 10000 nM |
